- TEST SYSTEM: equine FcRn (large alpha subunit p51) / equine beta-2-microglobulin complex, biotinylated (equine) (UniProt P30441)
- ASSAY COMMENT: SPR (Biacore), pH 6
QUANTITY KIND: pKd
When answering, recall that pKd equals minus log10 of the concentration in mol/L, and write that number alone.

Query: State the recorded pKd for this entry: equine IgG4 D312A (antibody, part only; not given: variable domains, not shown: another chain or arm of the molecule) constant: ASTTAPKVFPLASHSAATSGSTVALGCLVSSYFPEPVTVSWNSGALTSGVHTFPSVLQSSGLYSLSSMVTVPASSLKSQTYICNVAHPASSTKVDKKIVIKECNGGCPAECLQVGPSVFIFPPKPKDVLMISRTPTVTCVVVDVGHDFPDVQFNWYVDGVETHTATTEPKQEQFNSTYRVVSVLPIQHKAWLSGKEFKCKVNNKALPAPVERTISKPTGQPREPQVYVLAPHRDELSKNKVSVTCLVKDFYPTDIDIEWKSNGQPEPETKYSTTPAQLDSDGSYFLYSKLTVETNRWQQGTTFTCAVMHEALHNHYTEKSVSKSPGK
Result: 7.88

Query: Another binder to look at: equine IgG4 N434V (antibody, part only; not given: Variable domains, not shown: another chain or arm of the molecule) constant: ASTTAPKVFPLASHSAATSGSTVALGCLVSSYFPEPVTVSWNSGALTSGVHTFPSVLQSSGLYSLSSMVTVPASSLKSQTYICNVAHPASSTKVDKKIVIKECNGGCPAECLQVGPSVFIFPPKPKDVLMISRTPTVTCVVVDVGHDFPDVQFNWYVDGVETHTATTEPKQEQFNSTYRVVSVLPIQHKDWLSGKEFKCKVNNKALPAPVERTISKPTGQPREPQVYVLAPHRDELSKNKVSVTCLVKDFYPTDIDIEWKSNGQPEPETKYSTTPAQLDSDGSYFLYSKLTVETNRWQQGTTFTCAVMHEALHVHYTEKSVSKSPGK
Result: 7.49

Query: Same question, equine IgG4 Y436N (antibody, part only; not given: variable domains, not shown: another chain or arm of the molecule) constant: ASTTAPKVFPLASHSAATSGSTVALGCLVSSYFPEPVTVSWNSGALTSGVHTFPSVLQSSGLYSLSSMVTVPASSLKSQTYICNVAHPASSTKVDKKIVIKECNGGCPAECLQVGPSVFIFPPKPKDVLMISRTPTVTCVVVDVGHDFPDVQFNWYVDGVETHTATTEPKQEQFNSTYRVVSVLPIQHKDWLSGKEFKCKVNNKALPAPVERTISKPTGQPREPQVYVLAPHRDELSKNKVSVTCLVKDFYPTDIDIEWKSNGQPEPETKYSTTPAQLDSDGSYFLYSKLTVETNRWQQGTTFTCAVMHEALHNHNTEKSVSKSPGK this time
Result: 7.30

Query: Then equine IgG1 M428F (antibody, part only; not given: variable domains, not shown: another chain or arm of the molecule) constant: ASTTAPKVFALAPGCGTTSDSTVALGCLVSGYFPEPVKVSWNSGSLTSGVHTFPSVLQSSGFYSLSSMVTVPASTWTSETYICNVVHAASNFKVDKRIEPIPDNHQKVCDMSKCPKCPAPELLGGPSVFIFPPNPKDTLMITRTPEVTCVVVDVSQENPDVKFNWYMDGVEVRTATTRPKEEQFNSTYRVVSVLRIQHQDWLSGKEFKCKVNNQALPQPIERTITKTKGRSQEPQVYVLAPHPDELSKSKVSVTCLVKDFYPPEINIEWQSNGQPELETKYSTTQAQQDSDGSYFLYSKLSVDRNRWQQGTTFTCGVFHEALHNHYTQKNVSKNPGK ?
Result: 7.76

Query: Try equine IgG1 D312G (antibody, part only; not given: variable domains, not shown: another chain or arm of the molecule) constant: ASTTAPKVFALAPGCGTTSDSTVALGCLVSGYFPEPVKVSWNSGSLTSGVHTFPSVLQSSGFYSLSSMVTVPASTWTSETYICNVVHAASNFKVDKRIEPIPDNHQKVCDMSKCPKCPAPELLGGPSVFIFPPNPKDTLMITRTPEVTCVVVDVSQENPDVKFNWYMDGVEVRTATTRPKEEQFNSTYRVVSVLRIQHQGWLSGKEFKCKVNNQALPQPIERTITKTKGRSQEPQVYVLAPHPDELSKSKVSVTCLVKDFYPPEINIEWQSNGQPELETKYSTTQAQQDSDGSYFLYSKLSVDRNRWQQGTTFTCGVMHEALHNHYTQKNVSKNPGK next.
Result: 7.79

Query: Now consider equine IgG1 N434S (antibody, part only; not given: variable domains, not shown: another chain or arm of the molecule) constant: ASTTAPKVFALAPGCGTTSDSTVALGCLVSGYFPEPVKVSWNSGSLTSGVHTFPSVLQSSGFYSLSSMVTVPASTWTSETYICNVVHAASNFKVDKRIEPIPDNHQKVCDMSKCPKCPAPELLGGPSVFIFPPNPKDTLMITRTPEVTCVVVDVSQENPDVKFNWYMDGVEVRTATTRPKEEQFNSTYRVVSVLRIQHQDWLSGKEFKCKVNNQALPQPIERTITKTKGRSQEPQVYVLAPHPDELSKSKVSVTCLVKDFYPPEINIEWQSNGQPELETKYSTTQAQQDSDGSYFLYSKLSVDRNRWQQGTTFTCGVMHEALHSHYTQKNVSKNPGK .
Result: 8.00

Query: Same question, equine IgG1 M428C (antibody, part only; not given: variable domains, not shown: another chain or arm of the molecule) constant: ASTTAPKVFALAPGCGTTSDSTVALGCLVSGYFPEPVKVSWNSGSLTSGVHTFPSVLQSSGFYSLSSMVTVPASTWTSETYICNVVHAASNFKVDKRIEPIPDNHQKVCDMSKCPKCPAPELLGGPSVFIFPPNPKDTLMITRTPEVTCVVVDVSQENPDVKFNWYMDGVEVRTATTRPKEEQFNSTYRVVSVLRIQHQDWLSGKEFKCKVNNQALPQPIERTITKTKGRSQEPQVYVLAPHPDELSKSKVSVTCLVKDFYPPEINIEWQSNGQPELETKYSTTQAQQDSDGSYFLYSKLSVDRNRWQQGTTFTCGVCHEALHNHYTQKNVSKNPGK this time
Result: 7.32

Query: Try the binder equine IgG4 D312K (antibody, part only; not given: variable domains, not shown: another chain or arm of the molecule) constant: ASTTAPKVFPLASHSAATSGSTVALGCLVSSYFPEPVTVSWNSGALTSGVHTFPSVLQSSGLYSLSSMVTVPASSLKSQTYICNVAHPASSTKVDKKIVIKECNGGCPAECLQVGPSVFIFPPKPKDVLMISRTPTVTCVVVDVGHDFPDVQFNWYVDGVETHTATTEPKQEQFNSTYRVVSVLPIQHKKWLSGKEFKCKVNNKALPAPVERTISKPTGQPREPQVYVLAPHRDELSKNKVSVTCLVKDFYPTDIDIEWKSNGQPEPETKYSTTPAQLDSDGSYFLYSKLTVETNRWQQGTTFTCAVMHEALHNHYTEKSVSKSPGK
Result: 7.87

Provenance of the data: patent US20260070987A1
